Test system: HEK-293T
measurement description: Multiplex assay against HEK293T
Format: toxicity, cell-based
experimental context: human, 48 h, 1 µM, compound concentration 1 uM, replicate 1
# maps each entry to its Population Membrane Permeable-Phenotype (%)
The answer is to be given in %; state only the numeric part.

Worked cases, Population Membrane Permeable-Phenotype (%) given:
c1cn2cc(-c3ccc4cn[nH]c4c3)nc(Nc3ccc(N4CCOCC4)cc3)c2n1	1
Cc1c(-c2ccc(O)cc2)n(Cc2ccc(OCCN3CCCCCC3)cc2)c2ccc(O)cc12	3
Cc1cc(C)cc(-c2cnc3cc(Cl)c(-c4cccc(O)c4)cc3c2OCCCN)c1	0
O=C1NCN(c2ccccc2)C12CCN(CCCOc1ccc(F)cc1)CC2 [SPIRAMIDE]	1

input: Entry Cn1cc(-c2[nH]c3cc(NC(=O)[C@H](N)C4CCCCC4)cc4c3c2C=NNC4=O)cn1 : reported Population Membrane Permeable-Phenotype (%) = ?
output: 6

input: Entry CNc1nc(NCc2ccc(NS(C)(=O)=O)cc2Cl)cc(-c2ccccn2)n1 : reported Population Membrane Permeable-Phenotype (%) = ?
output: 2

input: Entry CN1CCCC(n2nc(Cc3ccc(Cl)cc3)c3ccccc3c2=O)CC1.Cl (stereo not drawn) [AZELASTINE HYDROCHLORIDE] : reported Population Membrane Permeable-Phenotype (%) = ?
output: 3

input: Entry C[C@@H](NCCCc1cccc(C(F)(F)F)c1)c1cccc2ccccc12.Cl [CINACALCET HYDROCHLORIDE] : reported Population Membrane Permeable-Phenotype (%) = ?
output: 1
